inhibition overview
# Test system: 85/88 kDa calcium-independent phospholipase A2 (Homo sapiens) (UniProt O60733)
# Sequence (O60733 whole entry): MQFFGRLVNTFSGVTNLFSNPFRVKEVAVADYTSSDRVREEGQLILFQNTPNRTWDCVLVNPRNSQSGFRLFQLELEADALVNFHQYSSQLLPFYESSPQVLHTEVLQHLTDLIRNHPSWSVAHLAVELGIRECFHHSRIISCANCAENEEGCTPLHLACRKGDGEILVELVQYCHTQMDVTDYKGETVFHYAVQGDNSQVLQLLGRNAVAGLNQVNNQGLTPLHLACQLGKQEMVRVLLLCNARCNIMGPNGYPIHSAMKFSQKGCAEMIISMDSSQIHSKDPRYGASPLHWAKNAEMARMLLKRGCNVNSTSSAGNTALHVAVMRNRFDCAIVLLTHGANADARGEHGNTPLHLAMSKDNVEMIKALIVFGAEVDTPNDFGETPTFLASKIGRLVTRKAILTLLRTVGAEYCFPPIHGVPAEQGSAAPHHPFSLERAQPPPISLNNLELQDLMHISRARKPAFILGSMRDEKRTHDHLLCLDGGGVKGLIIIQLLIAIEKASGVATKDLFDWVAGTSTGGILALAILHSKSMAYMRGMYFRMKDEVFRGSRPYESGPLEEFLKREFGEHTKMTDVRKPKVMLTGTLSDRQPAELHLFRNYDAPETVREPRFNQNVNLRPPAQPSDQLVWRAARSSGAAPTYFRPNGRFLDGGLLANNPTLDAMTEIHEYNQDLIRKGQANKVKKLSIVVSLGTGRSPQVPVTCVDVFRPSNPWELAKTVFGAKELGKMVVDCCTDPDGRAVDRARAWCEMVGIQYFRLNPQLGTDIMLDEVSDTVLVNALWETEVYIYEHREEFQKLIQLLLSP
# Assay remarks: Inhibition of human group 6A cytosolic Ca(2+)-independent phospholipase A2 at 0.091 mole fraction by modified Dole assay
// return numeric value only (unit: %, not printed)

Completed entries (count: 7):
| Structure smiles | Unit string | inhibition |
| --- | --- | --- |
| CCCCCCCCCCCCCCC(=O)C(=O)NCC(=O)OCC | % | 62 |
| CCCCCCCCCCCCCCC(=O)C(=O)N[C@@H](CCCC)CCCCC(=O)OCC | % | 66 |
| CCCCCCCCCCCCCCC(=O)C(=O)N[C@@H](CCCC)CCC(=O)OC | % | 78 |
| CCCCCCCCCCCCCCC(=O)C(=O)NCC(=O)OC(C)(C)C | % | 53 |
| CCCCCCCCCCCCCCC(=O)C(=O)NCCCCOCC | % | 51 |
| CCCCCCCCCCCCCCC(=O)C(=O)NCC(=O)OC | % | 45 |
| CCCCCCCCCCCCCCC(=O)C(=O)N[C@@H](C)CCC(=O)OC(C)(C)C | % | 72 |

Kindly review the next compound as well.
Dear colleague, I am looking for the recorded inhibition of the following compound: `CCCCCCCCCCCCCCC(=O)C(=O)N[C@H](/C=C/C=C/C(=O)OCC)CCCC`
74
